Listed below: inhibition at 10 µM values for each entry.
- system.under.test: PCSK9 (Homo sapiens, UniProt Q8NBP7)
- Sequence (Q8NBP7 153-692): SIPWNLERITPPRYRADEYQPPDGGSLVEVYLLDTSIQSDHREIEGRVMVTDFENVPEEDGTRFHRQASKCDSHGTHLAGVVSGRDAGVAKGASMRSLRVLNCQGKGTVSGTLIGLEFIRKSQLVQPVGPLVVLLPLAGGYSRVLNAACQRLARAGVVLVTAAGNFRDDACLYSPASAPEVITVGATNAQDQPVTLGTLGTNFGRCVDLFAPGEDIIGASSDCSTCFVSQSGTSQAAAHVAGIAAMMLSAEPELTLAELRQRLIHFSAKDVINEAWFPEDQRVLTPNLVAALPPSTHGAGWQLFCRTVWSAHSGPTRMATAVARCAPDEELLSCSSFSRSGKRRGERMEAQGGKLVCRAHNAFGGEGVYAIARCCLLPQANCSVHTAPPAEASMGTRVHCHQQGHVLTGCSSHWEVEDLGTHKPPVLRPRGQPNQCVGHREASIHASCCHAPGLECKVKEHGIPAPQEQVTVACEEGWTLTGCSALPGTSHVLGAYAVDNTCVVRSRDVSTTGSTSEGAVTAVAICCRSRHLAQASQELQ
- Sequence (Q8NBP7 31-152 partner limits assumed): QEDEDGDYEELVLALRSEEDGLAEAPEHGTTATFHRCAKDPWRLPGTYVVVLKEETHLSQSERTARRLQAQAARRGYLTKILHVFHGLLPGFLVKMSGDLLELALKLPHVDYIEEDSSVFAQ
- method.summary: PCSK9-LDLR in vitro binding assay (solid phase, ELISA readout)
- protocol.conditions: test compound concentration 10 μM; read-out: % Inhibition PCSK 9
Give the number; % is assumed, so skip it.

These solved cases illustrate the format of a correct answer.
{"compound": "COc1cc(-c2ccc(OCC(=O)NCC3CCOCC3)cc2)nn1-c1ccc(C(F)(F)F)cc1", "unit.text": "%", "inhibition at 10 µM": 73}
{"compound": "COc1ccc(N2CC(c3ccc(OCC(=O)NCC4CCOCC4)cc3)OC2=O)cc1 (centres unmarked)", "unit.text": "%", "inhibition at 10 µM": 24}
{"compound": "Cc1c(-c2ccc(OCC(=O)NCC3CCOCC3)cc2)noc1-c1ccc(Cl)cc1", "unit.text": "%", "inhibition at 10 µM": 36}

Return the recorded inhibition at 10 µM value; entry: `O=C(COc1ccc(-n2cc(-c3ccccc3)nn2)cc1)NCC1CCOCC1`
58

Return the recorded inhibition at 10 µM value; entry: `O=C(COc1ccc(-c2nnc(-c3ccc(F)cc3)o2)cc1)NCC1CCOCC1`
20

Return the recorded inhibition at 10 µM value; entry: `COc1cc(-c2ccc(OCC(=O)NCC3CCOCC3)cc2)nn1-c1ccc(F)cc1`
41

Return the recorded inhibition at 10 µM value; entry: `Cc1c(-c2ccc(OCC(=O)NCC3CCOCC3)cc2)nsc1-c1ccccc1`
22

Return the recorded inhibition at 10 µM value; entry: O=C(COc1ccc(C2CN(c3ccc(F)cc3)C(=O)O2)cc1)NCC1CCOCC1 (centres unmarked)
54

Return the recorded inhibition at 10 µM value; entry: `Cc1c(-c2ccc(OCC(=O)NCC3CCOCC3)cc2)noc1-c1ccc(C(F)(F)F)cc1`
67

Return the recorded inhibition at 10 µM value; entry: `Cc1nc(-c2ccc(F)cc2)sc1-c1ccc(OCC(=O)NCC2CCOCC2)cc1`
30

Return the recorded inhibition at 10 µM value; entry: `Cc1ccc(-c2nc(-c3ccc(OCC(=O)NCC4CCOCC4)cc3)c(C)o2)cc1`
30

Return the recorded inhibition at 10 µM value; entry: `COc1ccc(-c2nnc(-c3ccc(OCC(=O)NCC4CCOCC4)cc3)o2)cc1`
23

Return the recorded inhibition at 10 µM value; entry: `O=C(COc1ccc(-c2noc(-c3ccc(C(F)(F)F)cc3)n2)cc1)NCC1CCOCC1`
50

Return the recorded inhibition at 10 µM value; entry: `Cc1nc(-c2ccc(C(F)(F)F)cc2)sc1-c1ccc(OCC(=O)NCC2CCOCC2)cc1`
33

Return the recorded inhibition at 10 µM value; entry: `Cc1c(-c2ccc(OCC(=O)NCC3CCOCC3)cc2)noc1-c1ccc(F)cc1`
35

Return the recorded inhibition at 10 µM value; entry: `Cc1onc(-c2ccc(OCC(=O)NCC3CCOCC3)cc2)c1-c1ccccc1`
9

Return the recorded inhibition at 10 µM value; entry: `Cc1oc(-c2cccnc2)nc1-c1ccc(OCC(=O)NCC2CCOCC2)cc1`
76

###

- system.under.test: PCSK9 (Homo sapiens)
- method.summary: PCSK9-LDLR in vitro binding assay (solid phase, ELISA readout)
- protocol.conditions: test compound concentration 1 μM; read-out: % Inhibition PCSK 9
Listed below: inhibition at 1 µM values for each entry.
Give the number; % is assumed, so skip it.

These solved cases illustrate the format of a correct answer.
{"compound": "COc1ccc(-c2nnc(-c3ccc(OCC(=O)NCC4CCOCC4)cc3)o2)cc1", "system.under.test": "PCSK9 (Homo sapiens)", "unit.text": "%", "inhibition at 1 µM": 13}
{"compound": "COc1cc(-c2ccc(OCC(=O)NCC3CCOCC3)cc2)nn1-c1ccc(F)cc1", "system.under.test": "PCSK9 (Homo sapiens)", "unit.text": "%", "inhibition at 1 µM": 37}
{"compound": "O=C(COc1ccc(-c2nnc(-c3ccc(F)cc3)o2)cc1)NCC1CCOCC1", "system.under.test": "PCSK9 (Homo sapiens)", "unit.text": "%", "inhibition at 1 µM": 19}

Recall the reported inhibition at 1 µM of COc1ccc(N2CC(c3ccc(OCC(=O)NCC4CCOCC4)cc3)OC2=O)cc1 (stereo not shown) on PCSK9 (Homo sapiens) and write it down.
47

###

- system.under.test: PCSK9 (Homo sapiens, UniProt Q8NBP7)
- method.summary: PCSK9-LDLR in vitro binding assay (solid phase, ELISA readout)
- protocol.conditions: test compound concentration 10 μM; read-out: % Inhibition PCSK 9
readout: inhibition at 10 µM (%)
Give the number; % is assumed, so skip it.

Return the recorded inhibition at 10 µM value; entry: Cc1c(-c2ccc(OCC(=O)NCC3CCOCC3)cc2)noc1-c1ccccc1 [Example 1]
42

Return the recorded inhibition at 10 µM value; entry: COc1cc(-c2ccc(OCC(=O)NCC3CCOCC3)cc2)nn1-c1ccccc1 [Example 10]
40

###

- system.under.test: PCSK9 (Homo sapiens)
- method.summary: PCSK9-LDLR in vitro binding assay (solid phase, ELISA readout)
- protocol.conditions: test compound concentration 1 μM; read-out: % Inhibition PCSK 9
readout: inhibition at 1 µM (%)
Give the number; % is assumed, so skip it.

These solved cases illustrate the format of a correct answer.
{"chemical.smiles": "O=C(COc1ccc(-n2cc(-c3ccccc3)nn2)cc1)NCC1CCOCC1", "inhibition at 1 µM (%)": 25}
{"chemical.smiles": "O=C(COc1ccc(-c2noc(-c3ccc(C(F)(F)F)cc3)n2)cc1)NCC1CCOCC1", "inhibition at 1 µM (%)": 37}
{"chemical.smiles": "Cc1nc(-c2ccccc2)sc1-c1ccc(OCC(=O)NCC2CCOCC2)cc1", "inhibition at 1 µM (%)": 30}

Recall the reported inhibition at 1 µM of `Cc1c(-c2ccc(OCC(=O)NCC3CCOCC3)cc2)noc1-c1ccc(F)cc1` on PCSK9 (Homo sapiens) and write it down.
33

###

Listed below: inhibition at 100 µM values for each entry.
- system.under.test: PCSK9 (Homo sapiens)
- method.summary: PCSK9-LDLR in vitro binding assay (solid phase, ELISA readout)
- protocol.conditions: test compound concentration 100 μM; read-out: % Inhibition PCSK 9
Give the number; % is assumed, so skip it.

These solved cases illustrate the format of a correct answer.
{"compound": "Cc1ccc(-c2onc(-c3ccc(OCC(=O)NCC4CCOCC4)cc3)c2C)cc1 [Example 6]", "system.under.test": "PCSK9 (Homo sapiens)", "inhibition at 100 µM (%)": 34}
{"compound": "COc1cc(-c2ccc(OCC(=O)NCC3CCOCC3)cc2)nn1-c1ccccc1 [Example 10]", "system.under.test": "PCSK9 (Homo sapiens)", "inhibition at 100 µM (%)": 56}
{"compound": "COc1ccc(-c2nnc(-c3ccc(OCC(=O)NCC4CCOCC4)cc3)o2)cc1 [Example 32]", "system.under.test": "PCSK9 (Homo sapiens)", "inhibition at 100 µM (%)": 30}

Now consider a different compound.
Return the recorded inhibition at 100 µM value; entry: COc1cc(-c2ccc(OCC(=O)NCC3CCOCC3)cc2)nn1Cc1ccc(C(F)(F)F)cc1 [Example 38]
59

###

- system.under.test: PCSK9 (Homo sapiens, UniProt Q8NBP7)
- method.summary: PCSK9-LDLR in vitro binding assay (solid phase, ELISA readout)
- protocol.conditions: test compound concentration 1 μM; read-out: % Inhibition PCSK 9
So basically: inhibition at 1 µM at 20% or higher? That is Met. Lower than 20%? That is Not met.

Does inhibition at 1 µM meet or surpass 20% for `COc1cc(-c2ccc(OCC(=O)NCC3CCOCC3)cc2)nn1Cc1ccc(C(F)(F)F)cc1` ?
Met

Does inhibition at 1 µM meet or surpass 20% for `Cc1ccc(-c2nc(-c3ccc(OCC(=O)NCC4CCOCC4)cc3)c(C)o2)cc1` ?
Met

Does inhibition at 1 µM meet or surpass 20% for `Cc1ccc(-c2onc(-c3ccc(OCC(=O)NCC4CCOCC4)cc3)c2C)cc1` ?
Not met

Does inhibition at 1 µM meet or surpass 20% for `Cc1oc(-c2cccnc2)nc1-c1ccc(OCC(=O)NCC2CCOCC2)cc1` ?
Met

Does inhibition at 1 µM meet or surpass 20% for `Cc1c(-c2ccc(OCC(=O)NCC3CCOCC3)cc2)nsc1-c1ccccc1` ?
Met

Does inhibition at 1 µM meet or surpass 20% for `Cc1nc(-c2ccc(F)cc2)sc1-c1ccc(OCC(=O)NCC2CCOCC2)cc1` ?
Not met

Does inhibition at 1 µM meet or surpass 20% for `COc1cc(-c2ccc(OCC(=O)NCC3CCOCC3)cc2)nn1-c1ccccc1` ?
Met

###

- system.under.test: PCSK9 (Homo sapiens)
- method.summary: PCSK9-LDLR in vitro binding assay (solid phase, ELISA readout)
- protocol.conditions: test compound concentration 10 μM; read-out: % Inhibition PCSK 9
readout: inhibition at 10 µM (%)
Give the number; % is assumed, so skip it.

These solved cases illustrate the format of a correct answer.
{"chemical.smiles": "COc1cc(-c2ccc(OCC(=O)NCC3CCOCC3)cc2)nn1Cc1ccc(C(F)(F)F)cc1", "inhibition at 10 µM, %": 39}
{"chemical.smiles": "Cc1oc(-c2ccc(C(F)(F)F)cc2)nc1-c1ccc(OCC(=O)NCC2CCOCC2)cc1", "inhibition at 10 µM, %": 53}
{"chemical.smiles": "Cc1oc(-c2ccccc2)nc1-c1ccc(OCC(=O)NCC2CCOCC2)cc1", "inhibition at 10 µM, %": 38}
{"chemical.smiles": "O=C(COc1ccc(-c2nnc(-c3ccc(C(F)(F)F)cc3)o2)cc1)NCC1CCOCC1", "inhibition at 10 µM, %": 34}

Now consider a different compound.
Recall the reported inhibition at 10 µM of `Cc1ccc(-c2onc(-c3ccc(OCC(=O)NCC4CCOCC4)cc3)c2C)cc1` on PCSK9 (Homo sapiens) and write it down.
17

Source: patent US9273041B2
